Origin of values: ChEMBL document CHEMBL1138132

assay: Oral bioavailability in rat; type: ADME, organism-based; settings: in vivo
endpoint: bioavailability (%)

O=C1NC[C@@](COCc2cc(C(F)(F)F)cc(C(F)(F)F)c2)(c2ccc(F)cc2)N1    93
C[C@@H](OC[C@@]1(c2ccccc2)CNC(=O)N1)c1cc(C(F)(F)F)cc(C(F)(F)F)c1    100

###

tested on: Meriones unguiculatus; assay: Inhibition of Mongolian gerbil foot-tapping at 4 hr time point at 1 mg/kg, po; format: functional
# reported inhibition in vivo at 1 mg/kg; entries follow
Report the figure in % without appending any unit label.

CN1CCC(N2CC(COCc3cc(C(F)(F)F)cc(C(F)(F)F)c3)(c3ccc(F)cc3)NC2=O)CC1 (stereo not drawn)    0
O=C1NC[C@@](COCc2cc(C(F)(F)F)cc(C(F)(F)F)c2)(c2ccc(F)cc2)N1    55
C[C@@H](OC[C@@]1(c2ccc(F)cc2)CNC(=O)N1)c1cc(C(F)(F)F)cc(C(F)(F)F)c1    44

Prompt line: Suppose we examine the molecule O=C1NC[C@@](COCc2cc(C(F)(F)F)cc(C(F)(F)F)c2)(c2ccccc2)N1 ; what inhibition in vivo at 1 mg/kg value has been reported?
Response line: 12

Prompt line: And the next one, C[C@@H](OC[C@@]1(c2ccc(F)cc2)CN(CC(N)=O)C(=O)N1)c1cc(C(F)(F)F)cc(C(F)(F)F)c1 ?
Response line: 20

Prompt line: And the next one, C[C@@H](OC[C@@]1(c2ccc(F)cc2)CN(C)C(=O)N1)c1cc(C(F)(F)F)cc(C(F)(F)F)c1 ?
Response line: 57

Prompt line: And the next one, O=C1NC(COCc2cc(C(F)(F)F)cc(C(F)(F)F)c2)(c2ccc(F)cc2)CN1C1CCNCC1 (stereo not drawn) ?
Response line: 0

Prompt line: And the next one, O=C1NC(COCc2cc(C(F)(F)F)cc(C(F)(F)F)c2)(c2ccc(F)cc2)CN1CCN1CCCC1 (stereo not drawn) ?
Response line: 0

###

tested on: Meriones unguiculatus; test: Inhibition of Mongolian gerbil foot-tapping at 6 hr time point at 1 mg/kg, po; type: functional
# reported inhibition in vivo at 1 mg/kg; entries follow
Report the figure in % without appending any unit label.

O=C1NC(COCc2cc(C(F)(F)F)cc(C(F)(F)F)c2)(c2ccc(F)cc2)CN1CCN1CCCC1 (stereo unspecified)    0
C[C@@H](OC[C@@]1(c2ccc(F)cc2)CN(C)C(=O)N1)c1cc(C(F)(F)F)cc(C(F)(F)F)c1    63
C[C@@H](OC[C@@]1(c2ccc(F)cc2)CNC(=O)N1)c1cc(C(F)(F)F)cc(C(F)(F)F)c1    41

Prompt line: Suppose we examine the compound C[C@@H](OC[C@@]1(c2ccccc2)CN(C)C(=O)N1)c1cc(C(F)(F)F)cc(C(F)(F)F)c1 ; what inhibition in vivo at 1 mg/kg value has been reported?
Response line: 31

Prompt line: And the next one, O=C1NC[C@@](COCc2cc(C(F)(F)F)cc(C(F)(F)F)c2)(c2ccc(F)cc2)N1 ?
Response line: 51

Prompt line: And the next one, C[C@@H](OC[C@@]1(c2ccccc2)CNC(=O)N1)c1cc(C(F)(F)F)cc(C(F)(F)F)c1 ?
Response line: 48
